Origin of measurements: patent EP4755881A1

- target under test: LPAR1 receptor (Homo sapiens, UniProt Q92633)
- Construct: expressed in transfected cells
- Sequence (Q92633 whole entry): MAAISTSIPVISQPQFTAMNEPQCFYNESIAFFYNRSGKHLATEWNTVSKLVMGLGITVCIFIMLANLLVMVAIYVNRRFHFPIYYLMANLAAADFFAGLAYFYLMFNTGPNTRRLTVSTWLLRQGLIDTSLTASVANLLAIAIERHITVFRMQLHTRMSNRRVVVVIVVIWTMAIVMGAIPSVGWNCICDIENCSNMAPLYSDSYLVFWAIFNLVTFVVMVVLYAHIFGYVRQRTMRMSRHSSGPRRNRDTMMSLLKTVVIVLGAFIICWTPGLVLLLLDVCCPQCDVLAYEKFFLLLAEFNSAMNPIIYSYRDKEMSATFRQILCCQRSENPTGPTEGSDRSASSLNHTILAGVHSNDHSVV
- test details: LPAR1 in vitro biological activity evaluation 2: HTRF cAMP kit (LANCE Ultra cAMP Kit) assay in CHO stable transfected cell line expressing the LPAR1 receptor
- Format: cell-based
- test parameters: Table 2, read-out: LPAR1 inhibitory activity IC50
Mark TRUE only for IC50 values smaller than 50 nM; exact matches and larger values are FALSE.

Strictly below 50 nM: is that where IC50 of `CCCN(C)C(=O)OCc1c(-c2ccc(C#CC3(CC(=O)O)CC4(CC4)C3)c(C)n2)nnn1C` sits? TRUE

Similarly, `Cc1nc(-c2nnn(C)c2NC(=O)O[C@H](C)CC(C)C)ccc1C#C[C@@H]1CC(F)(F)C[C@H]1C(=O)O` ? TRUE

Same for `Cc1nc(-c2nnn(C)c2NC(=O)O[C@H](C)CC(C)C)ccc1C#C[C@@H]1C[C@H]1C(=O)O` FALSE

Could you do the same for Cc1nc(-c2nnn(C)c2NC(=O)OC(C)C23CC(C2)C3)ccc1C#C[C@@H]1CC[C@H]1C(=O)O (some centres unmarked) , please? FALSE

Queued: `CCc1nc(-c2nnn(C)c2NC(=O)O[C@H](C)CC(C)(F)F)ccc1C#CC1(CC(=O)O)CC1` FALSE

Please answer likewise for CCCC(C)OC(=O)Nc1c(-c2ccc(C#CC3CCCC3C(=O)O)c(C)n2)nnn1C (single isomer, unassigned) [305-B] FALSE

Also check CCC(F)(F)[C@@H](C)OC(=O)Nc1c(-c2ccc(C#CC3(CC(=O)O)CC(OC)C3)c(C(F)(F)F)n2)noc1C (some centres unmarked) TRUE

Another: COC1CC(C#Cc2ccc(-c3nnn(C)c3NC(=O)O[C@H](C)c3ccccc3F)nc2C)(CC(=O)O)C1 (some centres unmarked) TRUE

Next compound: `CCCCN(C)C(=O)OCc1c(-c2ccc(C#CC3(CC(=O)O)CC(F)(F)C3)c(C)n2)nnn1C` TRUE

Also need CCc1nc(-c2noc(C)c2NC(=O)O[C@H](C)C(F)(F)CC)ccc1C#CC1(CC(=O)O)CC(OC)C1 (some centres unmarked) , thanks. TRUE

Please answer likewise for CCc1nc(-c2nnn(C)c2NC(=O)O[C@H](C)CC(C)(F)F)ccc1C#CC1(CC(=O)O)CC(OC)C1 (some centres unmarked) FALSE

Request: CCC(F)(F)[C@@H](C)OC(=O)Nc1c(C)noc1-c1ccc(C#CC2(CC(=O)O)CC(OC)C2)c(C(F)(F)F)n1 (some centres unmarked) TRUE

Now consider `Cc1nc(-c2onc(C)c2NC(=O)O[C@H](C)CC(C)(F)F)ccc1C#CC1(CC(=O)O)CC1` and answer again. FALSE

---

- target under test: hLPAR1 (human lysophosphatidic acid receptor 1, Accession No.: NM_001401.4) (Homo sapiens)
- Sequence (Q92633 whole entry): as above
- test details: cell-based
- test parameters: Table 1; FLIPR method, CHO-K1 cells overexpressing hLPAR1; read-out: LPAR1 inhibitory activity IC50
measurement kind: pIC50
Scale note: pIC50 = -log10(concentration in M).

Any idea what pIC50 was measured for Cc1nc(-c2nnn(C)c2NC(=O)O[C@H](C)CC(C)(F)F)ccc1C#C[C@@H]1CC[C@H]1C(=O)O (mixture of isomers) [213-A] ? 7.32

Next up: `C[C@H](CC(C)(F)F)OC(=O)Nc1c(-c2ccc(C#CC3(CC(=O)O)CC3)c(Cl)n2)nnn1C` 7.60

Likewise for `CCC[C@@H](C)OC(=O)Nc1c(-c2ccc(C#CC3(CC(=O)O)CC3)c(C)n2)nnn1C` ? 7.34

Another compound to look at: `Cc1nc(-c2nnn(C)c2COC(=O)N(C)CCC(C)(F)F)ccc1C#CC1(CC(=O)O)CC1` 7.29

Another compound to check: `Cc1nc(-c2nnn(C)c2CNc2nccc(C3CCC3)n2)ccc1C#CC1(CC(=O)O)CC1` 8.03

Next entry: CCC(F)(F)[C@@H](C)OC(=O)Nc1c(-c2ccc(C#C[C@@H]3CCC[C@H]3C(=O)O)c(C)n2)nnn1C (mixture of isomers) [219-B] 7.94

Now the compound CCCCN(C)C(=O)OCc1c(-c2ccc(C#C[C@@H]3CC(F)(F)C[C@H]3C(=O)O)c(C)n2)nnn1C (racemic) 7.52

// query: Cc1nc(-c2nnn(C)c2NC(=O)OC(C)C2CC(F)(F)C2)ccc1C#CC1(CC(=O)O)CC1 (stereo not drawn) 6.66

Now the compound Cc1nc(-c2nnn(C)c2NC(=O)O[C@H](C)c2ccccc2F)ccc1C#C[C@@H]1CCCC[C@H]1C(=O)O (mixture of isomers) [028-A] 7.75

Next record, please: `Cc1nc(-c2nnn(C)c2CNc2nccc(C3CC(F)(F)C3)n2)ccc1C#CC1(CC(=O)O)CC1` 7.19

Let us now turn to Cc1nc(-c2nnn(C)c2COC(=O)N(C)CCC(C)F)ccc1C#CC1(CC(=O)O)CC1 (stereo not drawn) 6.98

Follow-up entry: `C[C@H](C1CC1)N(C)C(=O)OCc1c(-c2ccc(C#CC3(CC(=O)O)CC3)cn2)nnn1C` 7.08

Also `Cc1nc(-c2nnn(C)c2COC(=O)N(C)CC2CCCC2)ccc1C#CC1(CC(=O)O)CC1` , if possible. 8.38

Also Cc1nc(-c2nnn(C)c2COC(=O)N(C)CC2CCC(F)(F)C2)ccc1C#CC1(CC(=O)O)CC1 (stereo not drawn) ? 7.52

Query Cc1nc(-c2nnn(C)c2NC(=O)OC(C)C2CCC2)ccc1C#CC1(CC(=O)O)CC1 (stereo not drawn) next 9.22

---

I'd appreciate it if you could supply half-life values for the items below.
- test details: Pharmacokinetic study in rats (oral gavage and tail vein injection, plasma LC-MS/MS)
- Type: in vivo
- test parameters: rat, in vivo, po, 1 mg/kg, SD rats
Kindly write the number and append the unit.

Give its half-life value. Item: Cc1nc(-c2nnn(C)c2COC(=O)N(C)CCC(C)(F)F)ccc1C#CC1CCC1C(=O)O (racemic) [compound 359] 6.24 h

For Cc1nc(-c2nnn(C)c2NC(=O)O[C@H](C)CCC(C)(F)F)ccc1C#CC1(CC(=O)O)CC1 [compound 314] then? 6.41 h

How about this compound: Cc1nc(-c2nnn(C)c2NC(=O)O[C@H](C)CC(C)(C)F)ccc1C#C[C@@H]1CC[C@H]1C(=O)O [compound 306] 7.2 h

Also Cc1nc(-c2nnn(C)c2NC(=O)OC(C)CC(C)(F)F)ccc1C#CC1CC1C(=O)O (stereo not shown) [compound 291] ? 5.15 h

---

- test details: Pharmacokinetic study in rats (oral gavage and tail vein injection, plasma LC-MS/MS)
- Format: in vivo
- test parameters: rat, in vivo, po, 3 mg/kg, SD rats
Can you tell me half-life for the items I'm about to list?
Provide only the numeric value, understood in min.

If you can, please state the reported half-life value of Cc1nc(-c2nnn(C)c2NC(=O)OC(C)CCCF)ccc1C#CC1(CC(=O)O)CC1 (single isomer, unassigned) [280-B] . 394

// repeat for CCC[C@H](C)OC(=O)Nc1c(-c2ccc(C#CC3(CC(=O)O)CC3)c(C)n2)nnn1C [010-B] and report 411

---

Provide the reported half-life of each item.
- test details: Pharmacokinetic study in rats (oral gavage and tail vein injection, plasma LC-MS/MS)
- Assay type: in vivo
- test parameters: male, SD, rat, iv, 1 mg/kg
# value in min; strip the unit string

Bench note: what half-life did CCC[C@@H](C)OC(=O)Nc1c(-c2ccc(C#CC3(CC(=O)O)CC(OC)C3)c(C)n2)nnn1C (stereo partly shown) show? 314

Follow-up entry: CCCN(C)C(=O)OCc1c(-c2ccc(O[C@H]3CCC[C@H](C(=O)O)C3)c(C)n2)nnn1C [Control compound 1, reference compound] 196

// query: `Cc1nc(-c2nnn(C)c2COc2nccc(C3CC(F)(F)C3)n2)ccc1C#CC1(CC(=O)O)CC1` 294

And then CCc1nc(-c2nnn(C)c2NC(=O)O[C@H](C)C(F)(F)CC)ccc1C#CC1(CC(=O)O)CC(OC)C1 (stereo partly shown) , what is it? 385

Next compound up: `C[C@H](CC(C)(F)F)OC(=O)Nc1c(-c2ccc(C#CC3(CC(=O)O)CC3)c(Cl)n2)nnn1C` 371

Next entry: `Cc1nc(-c2nnn(C)c2CNc2nccc(C3CC(F)(F)C3)n2)ccc1C#CC1(CC(=O)O)CC1` 422

Now the compound Cc1nc(-c2nnn(C)c2NC(=O)O[C@H](C)CC(C)(F)F)ccc1C#C[C@@H]1CC[C@H]1C(=O)O (mixture of isomers) 624

Continue with `Cc1nc(-c2nnn(C)c2NC(=O)O[C@H](C)CC(C)(F)F)ccc1C#CC1(CC(=O)O)CCC1` 726

Now consider `CCCN(C)C(=O)OCc1c(-c2ccc(C#C[C@@H]3CCC[C@H]3C(=O)O)c(C)n2)nnn1C` and answer again. 399

Please give the result for Cc1nc(-c2nnn(C)c2COC(=O)N(C)CCC(C)(F)F)ccc1C#C[C@@H]1CCC[C@H]1C(=O)O (racemic) too. 364
